Data origin: ChEMBL document CHEMBL1817584

Test system: Staphylococcus aureus
Test method notes: Antibacterial activity against methicillin-resistant Staphylococcus aureus N315 after 24 hrs by twofold serial dilution method
Format: functional
Details: N315, 24 h
This section presents compounds with their documented MIC values.
Answer format: numeric, µg/mL implied, no suffix.

Observe how each entry below is paired with its result.
Compound	Test target	Unit annotation	Endpoint result
OC(Cn1c[n+](Cc2ccc(F)cc2F)cn1)(Cn1c[n+](Cc2ccc(F)cc2F)cn1)c1ccc(F)cc1F.[Br-].[Br-]	Staphylococcus aureus	µg/mL	256
F[P-](F)(F)(F)(F)F.F[P-](F)(F)(F)(F)F.OC(Cn1c[n+](Cc2ccc(Cl)cc2Cl)cn1)(Cn1c[n+](Cc2ccc(Cl)cc2Cl)cn1)c1ccc(F)cc1F	Staphylococcus aureus	µg/mL	32

The compound identified as OC(Cn1c[n+](Cc2ccccc2)cn1)(Cn1c[n+](Cc2ccccc2)cn1)c1ccc(F)cc1F.[Br-].[Br-] registered its MIC at 128

The compound identified as Cc1cccc(C[n+]2cnn(CC(O)(Cn3c[n+](Cc4cccc(C)c4)cn3)c3ccc(F)cc3F)c2)c1.[Br-].[Br-] registered its MIC at 256

The compound identified as CCCCCCCC[n+]1cnn(Cc2ccc(F)cc2F)c1.[Br-] registered its MIC at 16

---

Tested on: Staphylococcus aureus
Test method notes: Antibacterial activity against Staphylococcus aureus ATCC 6538 after 24 hrs by twofold serial dilution method
Type: functional
Details: ATCC 6538, 24 h
Observed property: MIC (µg/mL)
Answer format: numeric, µg/mL implied, no suffix.

OC(Cn1c[n+](Cc2ccc(Cl)c(Cl)c2)cn1)(Cn1c[n+](Cc2ccc(Cl)c(Cl)c2)cn1)c1ccc(F)cc1F.[Cl-].[Cl-] 8
OC(Cn1c[n+](Cc2ccccc2)cn1)(Cn1c[n+](Cc2ccccc2)cn1)c1ccc(F)cc1F.[Br-].[Br-] 256
OC(Cn1c[n+](Cc2ccc(Cl)cc2Cl)cn1)(Cn1c[n+](Cc2ccc(Cl)cc2Cl)cn1)c1ccc(F)cc1F.[I-].[I-] 16
OC(Cn1c[n+](Cc2ccc(F)cc2F)cn1)(Cn1c[n+](Cc2ccc(F)cc2F)cn1)c1ccc(F)cc1F.[Br-].[Br-] 64
O=C1c2cccc3c(Br)ccc(c23)C(=O)N1CCC[n+]1cnn(CC(O)(Cn2c[n+](CCCN3C(=O)c4cccc5c(Br)ccc(c45)C3=O)cn2)c2ccc(F)cc2F)c1.[Br-].[Br-] 8

The value of MIC recorded for Fc1ccc(Cn2c[n+](CCOc3ccc4ccccc4c3)cn2)c(F)c1.[Br-] when tested on Staphylococcus aureus reads 16

The value of MIC recorded for CCCCCCCC[n+]1cnn(Cc2ccc(F)cc2F)c1.[Br-] when tested on Staphylococcus aureus reads 8

---

Test system: Staphylococcus aureus
Test method notes: Antibacterial activity against Staphylococcus aureus ATCC 6538 after 24 hrs by twofold serial dilution method
Type: functional
Details: ATCC 6538, 24 h
Observed property: MIC (µg/mL)
Answer format: numeric, µg/mL implied, no suffix.

Observe how each entry below is paired with its result.
O=[N+]([O-])c1ccc(C[n+]2cnn(CC(O)(Cn3c[n+](Cc4ccc([N+](=O)[O-])cc4)cn3)c3ccc(F)cc3F)c2)cc1.[Br-].[Br-] 64
OC(Cn1c[n+](CCOc2ccc3ccccc3c2)cn1)(Cn1c[n+](CCOc2ccc3ccccc3c2)cn1)c1ccc(F)cc1F.[Br-].[Br-] 4
O=C1c2cccc3c(Br)ccc(c23)C(=O)N1CCCCCC[n+]1cnn(CC(O)(Cn2c[n+](CCCCCCN3C(=O)c4cccc5c(Br)ccc(c45)C3=O)cn2)c2ccc(F)cc2F)c1.[Br-].[Br-] 8

Moving on to the next molecule.
The molecule identified as CCCCCCCC[n+]1cnn(CC(O)(Cn2c[n+](CCCCCCCC)cn2)c2ccc(F)cc2F)c1.[Br-].[Br-] registered its MIC at 1

---

This section presents molecules with their documented MIC values.
System: Pseudomonas aeruginosa
Test method notes: Antibacterial activity against Pseudomonas aeruginosa ATCC 27853 after 24 hrs by twofold serial dilution method
Assay type: functional
Details: ATCC 27853, 24 h
Answer format: numeric, µg/mL implied, no suffix.

Molecule	Endpoint result
CCCCCCCCCCCCCCCC[n+]1cnn(CC(O)(Cn2c[n+](CCCCCCCCCCCCCCCC)cn2)c2ccc(F)cc2F)c1.[Br-].[Br-]	128
OC(Cn1c[n+](Cc2ccc(Cl)cc2Cl)cn1)(Cn1c[n+](Cc2ccc(Cl)cc2Cl)cn1)c1ccc(F)cc1F.[I-].[I-]	32

The value of MIC recorded for CCn1cc(C(=O)O)c(=O)c2cc(F)c(N3CCNCC3)cc21 [NORFLOXACIN] when tested on Pseudomonas aeruginosa reads 2

The value of MIC recorded for Fc1ccc(Cn2c[n+](CCOc3ccc4ccccc4c3)cn2)c(F)c1.[Br-] when tested on Pseudomonas aeruginosa reads 8

The value of MIC recorded for O=[N+]([O-])c1ccc(C[n+]2cnn(CC(O)(Cn3c[n+](Cc4ccc([N+](=O)[O-])cc4)cn3)c3ccc(F)cc3F)c2)cc1.[Br-].[Br-] when tested on Pseudomonas aeruginosa reads 128

---

Test system: Aspergillus fumigatus
Test method notes: Antifungal activity against Aspergillus fumigatus ATCC 96918 after 24 hrs by twofold serial dilution method
Format: functional
Details: ATCC 96918, 24 h
Observed property: MIC

Observe how each entry below is paired with its result.
CCCC[n+]1cnn(CC(O)(Cn2c[n+](CCCC)cn2)c2ccc(F)cc2F)c1.[Br-].[Br-] > 256 µg/mL
BrCCOc1ccc2ccccc2c1 > 256 µg/mL

The compound identified as O=C1c2cccc3c(Br)ccc(c23)C(=O)N1CCCCCCn1cncn1 registered its MIC at > 256 µg/mL

---

This section presents molecules with their documented MIC values.
System: Staphylococcus aureus
Test method notes: Antibacterial activity against methicillin-resistant Staphylococcus aureus N315 after 24 hrs by twofold serial dilution method
Format: functional
Details: N315, 24 h

Molecule	Test target	MIC
OC(Cn1c[n+](Cc2ccc(Cl)cc2)cn1)(Cn1c[n+](Cc2ccc(Cl)cc2)cn1)c1ccc(F)cc1F.[Cl-].[Cl-]	Staphylococcus aureus	> 256 µg/mL
CCCC[n+]1cnn(CC(O)(Cn2c[n+](CCCC)cn2)c2ccc(F)cc2F)c1.[Br-].[Br-]	Staphylococcus aureus	> 256 µg/mL
O=C1c2cccc3c(Br)ccc(c23)C(=O)N1CCCCCCn1cncn1	Staphylococcus aureus	> 256 µg/mL
O=C1c2cccc3c(Br)ccc(c23)C(=O)N1CCCBr	Staphylococcus aureus	> 256 µg/mL
CCn1cc(C(=O)O)c(=O)c2cc(F)c(N3CCNCC3)cc21 [NORFLOXACIN]	Staphylococcus aureus	1 µg/mL

The molecule identified as O=[N+]([O-])c1ccc(C[n+]2cnn(CC(O)(Cn3c[n+](Cc4ccc([N+](=O)[O-])cc4)cn3)c3ccc(F)cc3F)c2)cc1.[Br-].[Br-] registered its MIC at 256 µg/mL

The molecule identified as OC(Cn1c[n+](Cc2ccc(Cl)cc2Cl)cn1)(Cn1c[n+](Cc2ccc(Cl)cc2Cl)cn1)c1ccc(F)cc1F.[Br-].[Br-] registered its MIC at 64 µg/mL

---

Test system: Staphylococcus aureus
Test method notes: Antibacterial activity against methicillin-resistant Staphylococcus aureus N315 after 24 hrs by twofold serial dilution method
Assay type: functional
Details: N315, 24 h
Observed property: MIC (µg/mL)
Answer format: numeric, µg/mL implied, no suffix.

Observe how each entry below is paired with its result.
CCCCCCCCCCCCCCCC[n+]1cnn(CC(O)(Cn2c[n+](CCCCCCCCCCCCCCCC)cn2)c2ccc(F)cc2F)c1.[Br-].[Br-] 128
O=C1c2cccc3c(Br)ccc(c23)C(=O)N1CCC[n+]1cnn(CC(O)(Cn2c[n+](CCCN3C(=O)c4cccc5c(Br)ccc(c45)C3=O)cn2)c2ccc(F)cc2F)c1.[Br-].[Br-] 4
OC(Cn1c[n+](Cc2ccc(Cl)c(Cl)c2)cn1)(Cn1c[n+](Cc2ccc(Cl)c(Cl)c2)cn1)c1ccc(F)cc1F.[Cl-].[Cl-] 64
OC(Cn1c[n+](Cc2ccccc2Cl)cn1)(Cn1c[n+](Cc2ccccc2Cl)cn1)c1ccc(F)cc1F.[Cl-].[Cl-] 256

The value of MIC recorded for CCCCCCCC[n+]1cnn(CC(O)(Cn2c[n+](CCCCCCCC)cn2)c2ccc(F)cc2F)c1.[Br-].[Br-] when tested on Staphylococcus aureus reads 8

---

Test system: Staphylococcus aureus
Test method notes: Antibacterial activity against methicillin-resistant Staphylococcus aureus N315 after 24 hrs by twofold serial dilution method
Format: functional
Details: N315, 24 h
This section presents compounds with their documented MIC values.

The compound identified as Fc1ccc(Cn2cncn2)c(F)c1 registered its MIC at > 256 µg/mL

The compound identified as Fc1ccc(Cn2c[n+](Cc3ccc(Cl)cc3Cl)cn2)c(F)c1.[Br-] registered its MIC at > 256 µg/mL

The compound identified as O=C1c2cccc3c(Br)ccc(c23)C(=O)N1CCCCCCBr registered its MIC at > 256 µg/mL
